Tgt: T1, recombinant human IL-23R/Fc chimera (R&D Systems) (human, UniProt Q5VWK5 24-353)
T1 construct: bought; also called human IL-23R/Fc fusion protein; rhIL23RFc
T1 sequence (looked up): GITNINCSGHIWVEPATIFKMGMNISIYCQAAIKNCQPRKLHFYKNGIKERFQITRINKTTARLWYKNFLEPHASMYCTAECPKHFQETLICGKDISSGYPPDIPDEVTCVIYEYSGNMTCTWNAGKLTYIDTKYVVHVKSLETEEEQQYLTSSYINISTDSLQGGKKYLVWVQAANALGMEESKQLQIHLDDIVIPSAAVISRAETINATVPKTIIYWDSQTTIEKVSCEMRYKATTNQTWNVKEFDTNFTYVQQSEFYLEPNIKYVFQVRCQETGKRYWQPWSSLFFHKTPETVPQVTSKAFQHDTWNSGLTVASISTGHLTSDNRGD
Measurement Notes: competition ELISA against IL-23
Binary label based on Ratio IC50 to 056-53.H4E IC50 with cut-off 1 ratio: below gives Yes, not below gives No.

Exercise: Is Ratio IC50 to 056-53.H4E IC50 of 105-20-2C4a ATRIMER (designed binder, not shown: C-terminal tag: His/Myc (pANA4) or HA-StrepII (pANA10)) EPPTQKPKKIVNAKKDVVNTKMFEELKSRLDTLAQEVALLKEQQALQTVCLKGTKVHMKCFLAFTQTKTFHEASEDCISRGGTLSTPQTGSENDALYEYLRQSVGNEAEIWLGLNGSAKTDTWVDMTGARIAYKNWETEITAQPDGGWGYFGENCAVLSGAANGKWFDKRCRDQLPYICQFGIV strictly below 1 ratio?
Key: No
